target: Mtb alanine racemase (Alr) (Mycobacterium tuberculosis)
Sequence (P9WQA9 whole entry): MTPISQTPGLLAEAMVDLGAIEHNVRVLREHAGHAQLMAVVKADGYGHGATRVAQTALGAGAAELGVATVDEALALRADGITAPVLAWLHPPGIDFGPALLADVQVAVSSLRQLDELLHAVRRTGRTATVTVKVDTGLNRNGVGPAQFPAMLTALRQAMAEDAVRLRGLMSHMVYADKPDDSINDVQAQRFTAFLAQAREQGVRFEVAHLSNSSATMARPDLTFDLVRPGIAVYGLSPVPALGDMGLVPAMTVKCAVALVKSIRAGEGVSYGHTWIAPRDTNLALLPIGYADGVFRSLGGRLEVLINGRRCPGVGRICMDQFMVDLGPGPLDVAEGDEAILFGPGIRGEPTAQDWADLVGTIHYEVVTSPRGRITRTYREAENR
pIC50: −log10 of the molar value.

compound | pIC50
CCOC(=O)[C@H](CCc1ccccc1)N[C@H]1CCc2ccccc2N(CC(=O)O)C1=O [benazepril] | 3.52
